Tested on: SF-268 CNS
Assay: NCI tumour cell line growth inhibition, 48 h
Below, each entry is listed alongside its reported TGI.
Value expressed in µM; do not type the unit.

CC1(C)OC1CC/C(=C/CBr)CBr (stereo not given) : 29
COc1cc2c(/C=C3\C(=O)Nc4ccc(Br)cc43)c(Cl)n(C)c2cc1C : 8
NS(=O)(=O)c1ccc(-n2nc(-c3ccc(Cl)cc3)cc2C2=CC(=O)C=CC2=O)cc1 : 50.4

Task: Please give the measured TGI for this compound: CCN(CCCl)CCNc1c2ccccc2nc2ccc(OC)cc12
Result: 2.59

Task: Please give the measured TGI for this compound: O=C1/C(=C/c2ccc(O)cc2)CCC1CNc1ccc(Cl)cc1 (stereo not given)
Result: 19.8

====

Tested on: MDA-MB-231 breast
Test: NCI tumour cell line growth inhibition, 48 h; in the data active = GI50 below about 0.43 µM; inactive = the rest
Log the outcome using a class from active, inactive

CC(C)[C@]12O[C@H]1[C@@H]1O[C@]13[C@]1(O[C@H]1C[C@H]1c4c(C(=O)c5ccccc5)oc(OC(=O)c5ccccc5)c4CC[C@@]13C)[C@@H]2O : active
O=Cc1ccc(C(F)(F)F)cc1.[C-]#[O+].[C-]#[O+].[C-]#[O+].[Cr] : inactive
CCCCCCCCSC1=CC(=O)C(OC)=C(OC)C1=O : inactive
CCN1C(=O)N(c2c(F)c(OC)cc(OC)c2F)Cc2cnc3[nH]c(CN4CCOCC4)cc3c21 : inactive
Cc1ccc(Cl)cc1Nc1nc(C(F)(F)F)ccc1C(=O)Oc1ccc(Cl)cc1 : inactive

Task: Could you check what this test reported for CC(O)CN(CCN(CC(C)O)CC(C)O)CC(C)O.O=[N+]([O-])O.[Cu+2] (stereo not drawn) ?
Result: inactive

Task: Could you check what this test reported for CN1CCN(c2ccc3nc(-c4ccc(OCCCN5C(=O)c6cccc7cccc(c67)C5=O)cc4)[nH]c3c2)CC1 ?
Result: inactive

Task: Could you check what this test reported for CN(C)/[N+]([O-])=N/Oc1cc(Nc2ccc(C(=O)O)cc2)c([N+](=O)[O-])cc1[N+](=O)[O-] ?
Result: inactive

====

System: MDA-MB-231 breast
Assay: NCI tumour cell line growth inhibition, 48 h
Below, each entry is listed alongside its reported log10 TGI.
Please note: log10 values; quantity TGI; unit µM.

Would you please look over these solved cases?
NS(=O)(=O)c1ccc(-n2nc(-c3ccc(Cl)cc3)cc2C2=CC(=O)C=CC2=O)cc1 : 1.51
CC(=O)c1ccc2c(c1)CC1(C2)Cc2cc3c(cc2C1)C(=O)CC3 (stereo not given) : 1.05
CC(C)(C)CC(C)(C)Cc1ccc(OCCOCC[N+](C)(C)Cc2ccccc2)cc1 : 0.49
O=C1/C(=C/c2ccc(O)cc2)CCC1CNc1ccc(Cl)cc1 (stereo not given) : 0.98

Task: Please give the measured log10 TGI for this compound: O=C(CCN1CCCC1)Nc1ccc2c(NCCCCc3ccccc3)c3ccccc3nc2c1
Result: 0.39

====

Tested on: IGROV1 ovarian
Assay: NCI tumour cell line growth inhibition, 48 h; in the data active means GI50 below about 0.43 µM; inactive means the rest
Log the outcome using a class from active, inactive

// below: answered compounds
COc1ccc2c(CNCCCCO)cc3cc4c(cc3c2c1)OCO4 : active
CC(CN(CP(=O)([O-])[O-])CP(=O)([O-])[O-])N(CP(=O)([O-])[O-])CP(=O)([O-])[O-].N[C@@H]1CCCC[C@@H]1N.[Pt+2] (centres undefined) : inactive
Oc1ccc2ccccc2c1/C=N\Nc1ccccn1 : active
Cc1ccccc1NC(=O)NC(CC(N)=O)c1ccc2c(c1)nc(-c1cccc(Oc3ccc(C(C)(C)C)cc3)c1)n2CCCN1CCCCC1C (centres undefined) : inactive

Task: Could you check what this test reported for CC1SC(c2cccs2)N(NC(=O)C(O)c2ccccc2)C1=O (centres undefined) ?
Result: inactive

Task: Could you check what this test reported for COc1ccc(-n2c(N)c(C(=O)NCCN3CCOCC3)c3nc4ccccc4nc32)cc1OC ?
Result: inactive

Task: Could you check what this test reported for O=C(NC(=S)NS(=O)(=O)c1ccc(N2N=C3c4ccccc4CC3C2c2cccs2)cc1)c1ccccc1 (centres undefined) ?
Result: inactive

Task: Could you check what this test reported for CN1CCN(c2ccc3nc(-c4ccc(OCCCN5C(=O)c6cccc7cccc(c67)C5=O)cc4)[nH]c3c2)CC1 ?
Result: inactive

Task: Could you check what this test reported for CC(C)(C)CC(C)(C)Cc1ccc(OCCOCC[N+](C)(C)Cc2ccccc2)cc1 ?
Result: inactive
